The values you see were collected from PubChem BioAssay AID1963969.

- Tested on: 817829-284-R-J1-PDC multi-cell spheroid viability;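 further: spheroids exposed to agents for seven days before readout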
- test description: Anticancer human tumor 817829-284-R-J1-PDC patient-derived colon adenocarcinoma cell line growth inhibition [PI3K]
- setup conditions: second compound 3.16 µM; first compound 1 µM; active compounds read low
Entries whose viability, T/C is below 60% take MET; entries at or above 60% take NOT MET.

Input: Find out if reported viability, T/C for C[C@@H](NC(=O)c1ncnc(N)c1Cl)c1ncc(C(=O)Nc2cc(C(F)(F)F)c(Cl)cn2)s1 + Cc1nc(NC(=O)N2CCCC2C(N)=O)sc1-c1ccnc(C(C)(C)C(F)(F)F)c1 is less than 60%
Output: NOT MET

Input: Find out if reported viability, T/C for CC1(C)CCC(Nc2ncc(C(F)(F)F)c(-c3c[nH]c4c(P(C)(C)=O)c(C#N)ccc34)n2)CN1 (stereo unspecified) + Cc1nc(NC(=O)N2CCCC2C(N)=O)sc1-c1ccnc(C(C)(C)C(F)(F)F)c1 is less than 60%
Output: MET

Input: Find out if reported viability, T/C for Cn1nccc1Nc1nccc(-c2ccn(C(CO)c3ccc(Cl)c(F)c3)c(=O)c2)n1 (stereo unspecified) + Cc1nc(NC(=O)N2CCCC2C(N)=O)sc1-c1ccnc(C(C)(C)C(F)(F)F)c1 is less than 60%
Output: NOT MET

Input: Find out if reported viability, T/C for CC1(C)CCC(CN2CCN(c3ccc(C(=O)NS(=O)(=O)c4ccc(NCC5CCOCC5)c([N+](=O)[O-])c4)c(Oc4cnc5[nH]ccc5c4)c3)CC2)=C(c2ccc(Cl)cc2)C1 + Cc1nc(NC(=O)N2CCCC2C(N)=O)sc1-c1ccnc(C(C)(C)C(F)(F)F)c1 is less than 60%
Output: NOT MET

Input: Find out if reported viability, T/C for C=CC(=O)N1CCN(c2nc(=O)n(-c3c(C)ccnc3C(C)C)c3nc(-c4c(O)cccc4F)c(F)cc23)C(C)C1 (stereo unspecified) + Cc1nc(NC(=O)N2CCCC2C(N)=O)sc1-c1ccnc(C(C)(C)C(F)(F)F)c1 is less than 60%
Output: NOT MET
